Each entry below carries its reported composite z-score.
Biological target: Calmodulin-1 (Homo sapiens)
Experiment: calcium-bound CALM1 binders on microarrays, profiling panel, artefact control for SMM control-protein annotation, biochemical, small-molecule microarray, Cy5-labelled CALM1, plus calcium (AID 1112);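 further: score merges spot fluorescence with signal to noise from triplicate slides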
Settings: Cy5-CALM1 binding fluorescence, higher = more signal
QUANTITY_KIND: composite z-score

# COMPOUND, NUMERIC_VALUE
rows = [
    ("CC(C)N1C(=O)[C@@]2(Cc3ccccc31)c1ccccc1C(=O)N(Cc1ccccc1)[C@H]2c1ccc(CO)cc1", -0.445),
    ("CC[C@@H]1C=C(C(=O)O)[C@H](c2cccc(Cl)c2)N1S(=O)(=O)c1ccc(C)cc1", 0.0755),
    ("CS(=O)(=O)CCOC(=O)C1=CC(CCCO)=CC(C2CC2)N(Cc2sc3ccccc3c2Cl)C=C1C(=O)OCCS(C)(=O)=O (centres undefined)", 0.811),
    ("COC(=O)C(CC#Cc1ccc2c(c1)[C@]1(C(=O)N2)[C@H](c2ccccc2OCCO)N2[C@H](c3ccccc3)[C@H](c3ccccc3)OC(=O)[C@H]2[C@@H]1C(=O)N1CCN(c2ncccn2)CC1)C(=O)OC", -0.154),
    ("CC[C@@H](O[Si](C#C[Si](C(C)C)(C(C)C)C(C)C)(C(C)C)C(C)C)c1cn([C@H](C)c2ccccc2)nn1", -0.0786),
    ("C=CCNC(=O)[C@@H]1[C@H]2C(=O)O[C@H](c3ccccc3)[C@H](c3ccccc3)N2[C@H](c2ccc(OCCO)cc2)[C@@]12C(=O)Nc1ccc(C#CCNC(N)=O)cc12", 0.472),
    ("CCc1cccc(NC(=O)O[C@H]2[C@H](OC(=O)Nc3ccccc3-c3ccccc3)[C@H](OC(=O)Nc3ccccc3-c3ccccc3)[C@@H](OC)O[C@@H]2CO)c1", -0.301),
    ("COc1ccc([Si](C)(C)[C@H]2[C@H](CC(=O)N3CCC[C@H]3CO)O[C@@]3(C(=O)N(Cc4cccc(N5CCCCC5=O)c4)c4ccccc43)[C@@H]2C)cc1", 0.222),
    ("CC(C)(C)OC(=O)CC[C@]1(C(=O)N2CCOCC2)COC(c2ccc(OCCCO)cc2)=N1", 1.03),
    ("O=C(NCC(F)(F)F)[C@@H]1c2ccccc2C(=O)N(Cc2cc(C(F)(F)F)cc(C(F)(F)F)c2)[C@H]1c1ccc(CO)cc1", 0.122),
    ("CC(C)C[C@@H]1NC(=O)[C@H]2C[C@@H](C(=O)O)[C@@H](c3cccc(OCCO)c3)N2C1=O", -0.2),
    ("CCCCC(=C=CC[C@H](O)c1ccccc1OCCO)CCO", -0.533),
    ("COC(=O)[C@@]1(Cc2ccc(F)cc2)[C@H]2c3cc(C(=O)N(C)C)n(CCF)c3C[C@H]2CN1C(=O)c1ccccc1", 0.55),
    ("COc1ccc(-c2cc3c(c(CCc4ccccc4)n2)[Si](C(C)C)(C(C)C)O[C@H]3c2ccccc2)cn1", -0.517),
]

---

Test: small-molecule microarray binders of probe aWnt5a, primary screen, biochemical, biotinylated probe, 635/667 nm fluorescence (AID 1113);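 further: score merges 667 nm fluorescence intensity with signal-to-noise per printed feature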
Conditions: higher = more signal
Mark Not satisfied for composite z-score values under -0.1, and Satisfied for everything at or above.

# COMPOUND, LABEL_VALUE
records = [
    ("O=C(NCC(F)(F)F)[C@@H]1c2ccccc2C(=O)N(Cc2cc(C(F)(F)F)cc(C(F)(F)F)c2)[C@H]1c1ccc(CO)cc1", "Satisfied"),
    ("COc1cccc(C)c1NC(=O)O[C@H]1[C@H](OC(=O)Nc2ccc3c(c2)OCO3)[C@H](OC(=O)Nc2ccc3c(c2)OCO3)[C@@H](OC)O[C@@H]1CO", "Satisfied"),
    ("COC(=O)[C@@]1(Cc2ccc(F)cc2)[C@H]2c3cc(C(=O)N4CCCC4)n(Cc4ccc(C(F)(F)F)nc4)c3C[C@H]2CN1C(=O)c1ccccc1", "Satisfied"),
    ("CCCCCCc1nc(Cc2cc(OC)c(OC)c(OC)c2)c(C)c2c1[Si](C(C)C)(C(C)C)OC2", "Satisfied"),
    ("C=CCOC(=O)[C@H]1[C@@H]2C(=O)O[C@@H](c3ccccc3)[C@@H](c3ccccc3)N2[C@@H](c2ccc(OCCOC(=O)[C@@H]3C[C@@H]4C(=O)N[C@@H](Cc5ccccc5)C(=O)N4[C@@H]3c3ccc(O)cc3)cc2)[C@]12C(=O)Nc1ccc(I)cc12", "Not satisfied"),
    ("Cc1ccc(S[C@]2(C(=O)NC(C)C)CC(=O)N(Cc3ccccc3)[C@@H]2c2ccc(CO)cc2)cc1", "Not satisfied"),
    ("COc1ccc(-c2cc3c(c(CCc4ccccc4)n2)[Si](C(C)C)(C(C)C)O[C@H]3c2ccccc2)cn1", "Not satisfied"),
    ("O=C1O[C@H](c2ccccc2)[C@H](c2ccccc2)N2[C@H]1[C@@H](C(=O)N1CCN(c3ncccn3)CC1)[C@]1(C(=O)Nc3ccc(C#CC4(O)CCCCCC4)cc31)[C@H]2c1ccc(O)cc1", "Satisfied"),
    ("[N-]=[N+]=NCc1ccccc1[C@H]1OC(c2ccc(OCCCO)cc2)=N[C@@]1(Cc1ccccc1N=[N+]=[N-])C(=O)N1CCOCC1", "Satisfied"),
    ("CN(C)CCCC[C@@H]1NC(=O)[C@H]2C[C@@H](C(=O)NCCCCCCNC(=O)CS)[C@@H](c3cccc(OCCO)c3)N2C1=O", "Not satisfied"),
    ("COc1ccc([Si](C)(C)[C@@H]2[C@@H](CC(=O)N(CCO)Cc3ccccc3)O[C@]3(C(=O)N(Cc4cccc(I)c4)c4ccccc43)[C@H]2C)cc1", "Satisfied"),
    ("COc1ccc([Si](C)(C)[C@@H]2[C@@H](CC(=O)N3Cc4ccccc4C[C@H]3CO)O[C@]3(C(=O)N(Cc4ccc(I)cc4)c4ccccc43)[C@H]2C)cc1", "Satisfied"),
    ("C=CC[C@]1(C(=O)NCCN2CCOCC2)N=C(c2ccc(OCCCO)cc2)O[C@H]1c1ccccc1", "Satisfied"),
    ("COc1ccc([Si](C)(C)[C@@H]2[C@@H](CC(=O)N3CCC[C@H]3CO)O[C@]3(C(=O)N(Cc4cccc(N5C(=O)c6cccc7cccc5c67)c4)c4ccccc43)[C@H]2C)cc1", "Not satisfied"),
    ("CCCC=C(CCC)[C@@H](NC(=O)c1ccc(C(=O)OC)cc1)c1ccc(C(=O)OC)cc1", "Satisfied"),
    ("COC(=O)[C@@]1(Cc2ccc(F)cc2)[C@H]2c3cc(C(=O)N4CCCC4)n(Cc4ccc(OC(F)(F)F)cc4)c3C[C@H]2CN1C(=O)c1ccccc1", "Satisfied"),
    ("CC(C)C[C@H]1NC(=O)CNC(=O)[C@@]23C(=O)N[C@@H](Cc4ccccc4)C2[C@H](C)[C@@]2(C)O[C@H]2C3/C=C/C/C=C\\CNC1=O (stereo not given in full)", "Not satisfied"),
    ("COc1cc2c(cc1OC)CN(C(=O)[C@@H]1[C@H]3C(=O)O[C@H](c4ccccc4)[C@H](c4ccccc4)N3[C@H](c3ccc(O)cc3)[C@@]13C(=O)Nc1ccc(C#CC4=CCCCC4)cc13)CC2", "Satisfied"),
    ("COC(=O)C(CC#Cc1ccc2c(c1)[C@]1(C(=O)N2)[C@H](C(N)=O)[C@H]2C(=O)O[C@H](c3ccccc3)[C@H](c3ccccc3)N2[C@@H]1c1ccccc1OCCO)C(=O)OC", "Satisfied"),
    ("C=CC[C@]1(C(N)=O)N=C(c2ccc(OCCCO)cc2)O[C@H]1c1ccccc1N=[N+]=[N-]", "Satisfied"),
    ("O=C1O[C@@H](c2ccccc2)[C@@H](c2ccccc2)N2[C@@H](c3ccccc3OCCO)[C@]3(C(=O)Nc4ccc(C#CC5(O)CCCCCC5)cc43)[C@@H](C(=O)N3CCCCCCC3)[C@H]12", "Satisfied"),
    ("C=C(CCCC)/C(=C/C[C@@H](OC(C)=O)c1ccc(OCCO)cc1)c1cc(C(=O)OC)ccc1OC", "Not satisfied"),
    ("COCCOC(=O)N1C(=O)[C@@]2(c3ccccc31)[C@H](C(=O)Nc1nc3ccccc3s1)[C@H]1C(=O)O[C@H](c3ccccc3)[C@H](c3ccccc3)N1[C@@H]2c1ccccc1OCCO", "Satisfied"),
    ("CC(C)[Si]1(C(C)C)OCc2cc(-c3ccc(-c4ccc(Cl)c(Cl)c4)o3)nc(-c3ccc(Oc4ccccc4)cc3)c21", "Not satisfied"),
    ("CC[C@@H](O[Si](C#C[Si](C(C)C)(C(C)C)C(C)C)(C(C)C)C(C)C)c1cn([C@H](CO)Cc2ccccc2)nn1", "Not satisfied"),
]
